In this section, each of the variants is paired with its reported protein stability index.
B1: CDC25A (parent)
chain: KPIVPTDGKRVIVVFHCEFSSERG

- Variants of: B1
- Protocol Notes: protein stability index of a GFP-peptide fusion (GPS, HEK-293T) (PSI 1-6); higher = more stable;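 further: lentivirally expressed fusions sorted by FACS into six bins by GFP to DsRed ratio, PSI derived from sequencing read proportions per bin multiplied by bin number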
- Test Settings: c terminus: a fixed tail appended
Outcome Measure: protein stability index

Residue Sequence	Numeric Result
KPIVPTDGKRVIVKFHCEFSSERG	2.43
KPIVPTDGKRVIVVFHEEFSSERG	2.57
KPIVPTDGGRVIVVFHCEFSSERG	2.86
KPIVPTDGKRVIVVFHCQFSSERG	3.42
KPIVPTDGKRVIVVFHCLFSSERG	1.76
VPIVPTDGKRVIVVFHCEFSSERG	3.69
KPIVPTDGKRVSVVFHCEFSSERG	1.82
KPIVPTDGKRVIVVFHCEFSSERC	2.7
KPIVPTDGKRVIVIFHCEFSSERG	2.56
FPIVPTDGKRVIVVFHCEFSSERG	1.32
KPIVPTDGKRWIVVFHCEFSSERG	3.24
KPIVPEDGKRVIVVFHCEFSSERG	1.82
MPIVPTDGKRVIVVFHCEFSSERG	1.86
NPIVPTDGKRVIVVFHCEFSSERG	1.62
KPIVPTDGKRVIVVEHCEFSSERG	4.32
KPIVPTDGKKVIVVFHCEFSSERG	2.51
KPIVPTDGKRVIVVFFCEFSSERG	2.41
KPIVPTDGKRVIVVFHVEFSSERG	2.73
KPIVPTDGKRVIVVFHCEFDSERG	1.68
KPIVPTDGKRVIVVFHCEFSNERG	2.46
KPIVCTDGKRVIVVFHCEFSSERG	4.79
KPIVPTDGKRVIVVFHCEFSSNRG	2.29
